Test: chemical genetic growth profiling, strain panel (AID 1159580);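 note: tested at 20 µM; growth read once vehicle control cultures reached saturation at 30 °C; 1 = growth at the plate median or of vehicle wells; lower values mean less growth of the strain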
Details: S. cerevisiae deletion strains, growth OD, locus YER167W, strain BCK2, active compounds read low
Among all 5,500 compounds or so, about 2,000 (36%) were called active. Roughly 18% stayed inconclusive and do not appear here. The list shows a part of the results.
QUANTITY: normalized growth
Respond numerically, and do not add a unit to the figure.

Exercise: # normalized growth lookup, item `COc1ccc([C@H]2Oc3c(I)c(OC)cc(OC)c3C[C@@H]2O)cc1OC`
Key: 1.01

Exercise: # normalized growth lookup, item `CCCCCCCCC(=O)NCc1ccc(O)c(OC)c1`
Key: 0.978

Exercise: # normalized growth lookup, item `COc1cc2c(cc1OC)C(=O)c1ccc(OC)c(OC)c1OCC(=O)C2`
Key: 0.995

Exercise: # normalized growth lookup, item CC(=O)S[C@@H]1CC2=CC(=O)CC[C@]2(C)[C@H]2CC[C@@]3(C)[C@@H](CC[C@@]34CCC(=O)O4)C12 (stereo partly drawn)
Key: 1.01

Exercise: # normalized growth lookup, item `Oc1cc(O)c2c(c1)O[C@H](c1cc(O)c(O)c(O)c1)[C@H](O)C2`
Key: 1.02

Exercise: # normalized growth lookup, item CC1COc2c(N3CCN(C)CC3)c(F)cc3c(=O)c(C(=O)O)cn1c23 (stereo not drawn)
Key: 1.01

Exercise: # normalized growth lookup, item `NS(=O)(=O)c1cc2c(cc1Cl)NC=NS2(=O)=O`
Key: 1.03

Exercise: # normalized growth lookup, item `Cc1ccc(S(=O)(=O)NC(=O)NN2CCCCCC2)cc1`
Key: 0.984

Exercise: # normalized growth lookup, item COC(=O)[C@@H]1OC(=O)C2OC23[C@@]1(C)CCC1[C@]2(C)C(C[C@H](O)[C@]13C)C(C)(C)[C@H](OC(C)=O)C[C@@H]2OC(C)=O (stereo partly drawn)
Key: 1.02

Exercise: # normalized growth lookup, item CC1CCc2cc(F)cc3c(=O)c(C(=O)O)cn1c23 (stereo not drawn)
Key: 0.988

Exercise: # normalized growth lookup, item `O=C(O[C@@H]1Cc2c(O)cc(O)cc2O[C@@H]1c1cc(O)c(O)c(O)c1)c1cc(O)c(O)c(O)c1`
Key: 0.801

Exercise: # normalized growth lookup, item `O=C(O[C@@H]1Cc2c(O)cc(O)cc2O[C@@H]1c1ccc(O)c(O)c1)c1cc(O)c(O)c(O)c1`
Key: 0.995

Exercise: # normalized growth lookup, item `N[C@@H](Cc1ccc(N(CCCl)CCCl)cc1)C(=O)O`
Key: 0.982

Exercise: # normalized growth lookup, item `COc1ccc2c(c1)OC/C(=C\c1ccc(OC)c(O)c1)C2=O`
Key: 0.816

Exercise: # normalized growth lookup, item `C#CCN(C)Cc1ccccc1`
Key: 1

Exercise: # normalized growth lookup, item C[C@@H]1CC(Cl)CC[C@H]1C(=O)OC(C)(C)C (stereo partly drawn)
Key: 0.993

Exercise: # normalized growth lookup, item Oc1cc(O)c2c(c1)OC(c1cc(O)c(O)c(O)c1)C(O)C2c1c(O)cc(O)c2c1OC(c1cc(O)c(O)c(O)c1)C(O)C2c1c(O)cc(O)c2c1OC(c1cc(O)c(O)c(O)c1)C(O)C2 (stereo not drawn)
Key: 1.02

Exercise: # normalized growth lookup, item `O=C(Oc1cc(OC(=O)c2ccccc2)c2c(c1)O[C@H](c1ccc(OC(=O)c3ccccc3)c(OC(=O)c3ccccc3)c1)[C@@H](OC(=O)c1ccccc1)C2)c1ccccc1`
Key: 1.03

---

Assay: chemical genetic growth profiling, strain panel (AID 1159580);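 note: tested at 20 µM; growth read once vehicle control cultures reached saturation at 30 °C; 1 = growth at the plate median or of vehicle wells; lower values mean less growth of the strain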
Conditions: S. cerevisiae deletion strains, growth OD, locus YGR252W, strain gcn5, active compounds read low
Among all 5,500 compounds or so, about 2,000 (36%) were called active. Roughly 18% stayed inconclusive and do not appear here. The list shows a part of the results.
Can you tell me normalized growth for the items I'm about to list?
Respond numerically, and do not add a unit to the figure.

Exercise: # normalized growth lookup, item COc1ccc2c(c1)OC1(O)COc3cc(OC)c(OC)cc3C1=C2 (stereo not given)
Key: 0.873

Exercise: # normalized growth lookup, item COc1cc2nc(N(C)CCCNC(=O)C3CCCO3)nc(N)c2cc1OC (stereo not given)
Key: 0.95

Exercise: # normalized growth lookup, item c1ccc2c(c1)CCCC2C1=NCCN1 (stereo not given)
Key: 0.971

Exercise: # normalized growth lookup, item `Nc1nc(=S)c2[nH]cnc2[nH]1`
Key: 0.981

Exercise: # normalized growth lookup, item `Cc1ncc(CNC(=O)N(CCCl)N=O)c(N)n1`
Key: 0.976

Exercise: # normalized growth lookup, item C=C[C@@](C)(O)CCC1C(=C)C[C@H](O)C2C(C)(C)CCCC12C (stereo not given in full)
Key: 0.995

Exercise: # normalized growth lookup, item `COc1ccccc1-c1coc2cc(O)ccc2c1=O`
Key: 0.88

Exercise: # normalized growth lookup, item `CN1CCC(OC(c2ccccc2)c2ccccc2)CC1`
Key: 0.925

Exercise: # normalized growth lookup, item `COc1cc2c(cc1OC)C(=O)c1ccc(OC)c(OC)c1OCC(=O)C2`
Key: 1.05

Exercise: # normalized growth lookup, item `O=C1NCC2(CCN(CCc3ccccc3)CC2)O1`
Key: 0.944

Exercise: # normalized growth lookup, item `C[C@H]1COc2c(N3CCN(C)CC3)c(F)cc3c(=O)c(C(=O)O)cn1c23`
Key: 0.996

Exercise: # normalized growth lookup, item `C=CCc1ccc(OC(=O)c2ccccc2)c(OC)c1`
Key: 0.993

Exercise: # normalized growth lookup, item `Cc1ccc(S(=O)(=O)NC(=O)NN2CCCCCC2)cc1`
Key: 0.96

Exercise: # normalized growth lookup, item `COc1ccc(-c2coc3cc(O)ccc3c2=O)c(OC)c1O`
Key: 1.12

Exercise: # normalized growth lookup, item O=C1CCC(N2C(=O)c3ccccc3C2=O)C(=O)N1 (stereo not given)
Key: 0.969

---

Assay: chemical genetic growth profiling, strain panel (AID 1159580);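 note: tested at 20 µM; growth read once vehicle control cultures reached saturation at 30 °C; 1 = growth at the plate median or of vehicle wells; lower values mean less growth of the strain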
Settings: S. cerevisiae deletion strains, growth OD, strain wtn01, active compounds read low
Hit rate of the full screen: of about 5,500 compounds, about 2,000 (36%) were called active. About 18% were inconclusive and are not listed. The list shows a part of the results.
Can you tell me normalized growth for the items I'm about to list?
Respond numerically, and do not add a unit to the figure.

Exercise: # normalized growth lookup, item `CCN(CC)Cc1ccc(Nc2ccnc3cc(Cl)ccc23)cc1O`
Key: 1

Exercise: # normalized growth lookup, item `COc1ccccc1-c1coc2cc(O)ccc2c1=O`
Key: 0.986

Exercise: # normalized growth lookup, item `Oc1ccc2c(c1)O[C@H](c1ccc(O)c(O)c1)[C@@H](O)C2`
Key: 1.02

Exercise: # normalized growth lookup, item COC(=O)C[C@H]1C2(C)CC34OC5(C)O[C@@]6([C@H](OC)C(OC(=O)C(C)C)[C@]7(C)C(/C(=C(/OC)C(C)C)C(=O)O[C@H]7c7ccoc7)[C@@]6(O5)[C@H](OC)[C@@]3(OC)C2OC(C)=O)[C@]14C (stereo not given in full)
Key: 0.995

Exercise: # normalized growth lookup, item `N[C@@H](Cc1ccc(N(CCCl)CCCl)cc1)C(=O)O`
Key: 0.982

Exercise: # normalized growth lookup, item `Cc1ccc(S(=O)(=O)NC(=O)NN2CCCCCC2)cc1`
Key: 1.01

Exercise: # normalized growth lookup, item `O=C(O)CCCc1ccccc1`
Key: 0.995

Exercise: # normalized growth lookup, item `O=C1c2ccc(O)cc2O[C@H](c2cc(O)c(O)c(O)c2)[C@H]1O`
Key: 1.01

Exercise: # normalized growth lookup, item CCn1cc(C(=O)O)c(=O)c2cc(F)c(N3CCNC(C)C3)c(F)c21 (stereo not given)
Key: 0.998

Exercise: # normalized growth lookup, item `Clc1ccc(C(c2ccc(Cl)cc2)C(Cl)(Cl)Cl)cc1`
Key: 0.997

Exercise: # normalized growth lookup, item `COc1ccc(-c2coc3cc(O)ccc3c2=O)c(OC)c1O`
Key: 0.981

Exercise: # normalized growth lookup, item `CCCCCCCCC(=O)NCc1ccc(O)c(OC)c1`
Key: 0.984

Exercise: # normalized growth lookup, item CC1COc2c(N3CCN(C)CC3)c(F)cc3c(=O)c(C(=O)O)cn1c23 (stereo not given)
Key: 1.01

Exercise: # normalized growth lookup, item `Oc1cc(O)c2c(c1)O[C@H](c1cc(O)c(O)c(O)c1)[C@H](O)C2`
Key: 0.975

Exercise: # normalized growth lookup, item `CCn1cc(C(=O)O)c(=O)c2cc(F)c(N3CCNCC3)nc21`
Key: 1.01

Exercise: # normalized growth lookup, item CC(=O)O[C@H]1C[C@@H](OC(C)=O)C(C)(C)C2CC(=O)[C@]3(C)C(CC[C@@]4(C)[C@H](C(=O)O)OC(=O)C5OC543)[C@]21C (stereo not given in full)
Key: 0.983

Exercise: # normalized growth lookup, item COc1c(N2CCNC(C)C2)c(F)cc2c(=O)c(C(=O)O)cn(C3CC3)c12 (stereo not given)
Key: 0.996

Exercise: # normalized growth lookup, item COC(=O)C[C@H]1C2(C)CC34OC5(C)O[C@@]6([C@H](OC(C)=O)C(OC(C)=O)[C@]7(C)C(/C(=C(/O)C(C)C)C(=O)O[C@H]7c7ccoc7)[C@@]6(O5)[C@H](OC(C)=O)[C@@]3(O)C2OC(=O)C(C)C)[C@]14C (stereo not given in full)
Key: 1

Exercise: # normalized growth lookup, item COc1ccc2c(c1)OC1(O)COc3cc(OC)c(OC)cc3C1=C2 (stereo not given)
Key: 0.981

Exercise: # normalized growth lookup, item Oc1cc(O)c2c(c1)OC(c1cc(O)c(O)c(O)c1)C(O)C2c1c(O)cc(O)c2c1OC(c1cc(O)c(O)c(O)c1)C(O)C2c1c(O)cc(O)c2c1OC(c1cc(O)c(O)c(O)c1)C(O)C2 (stereo not given)
Key: 1.01

Exercise: # normalized growth lookup, item COc1ccc(C(CN(C)C)C2(O)CCCCC2)cc1 (stereo not given)
Key: 0.983

Exercise: # normalized growth lookup, item `NC(=O)c1ccc[n+]([C@@H]2O[C@H](COP(=O)([O-])OP(=O)(O)OC[C@H]3O[C@@H](n4cnc5c(N)ncnc54)[C@H](OP(=O)(O)O)[C@@H]3O)[C@@H](O)[C@H]2O)c1`
Key: 1

Exercise: # normalized growth lookup, item `CN(C)CCN(Cc1cccs1)c1ccccn1`
Key: 1.01

Exercise: # normalized growth lookup, item O=C(OCC(O)CO)c1ccccc1Nc1ccnc2cc(Cl)ccc12 (stereo not given)
Key: 0.98

Exercise: # normalized growth lookup, item `CN(C)CCN(Cc1ccccc1)c1ccccn1`
Key: 0.989
